B1: EFHC1 (parent)
chain: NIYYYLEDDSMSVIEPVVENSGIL

Variants of: B1
TEST NAME: protein stability index of a GFP-peptide fusion (GPS, HEK-293T) (PSI 1-6); higher = more stable;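 further: lentivirally expressed fusions sorted by FACS into six bins by GFP to DsRed ratio, PSI derived from sequencing read proportions per bin multiplied by bin number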
ASSAY SETUP: c terminus: a fixed tail appended
Output: class label from protein stability index. Mapping: class 1: < 2; class 2: ≥ 2 and < 3; class 3: ≥ 3

variant_name=L24I class_assignment="class 3"
variant_name=E15H class_assignment="class 1"
variant_name=S12T class_assignment="class 1"
variant_name=E7T class_assignment="class 2"
variant_name=V18L class_assignment="class 2"
variant_name=L6W class_assignment="class 1"
variant_name=L24G class_assignment="class 2"
variant_name=Y5L class_assignment="class 2"
variant_name=N20D class_assignment="class 1"
variant_name=E15Y class_assignment="class 1"
variant_name=E19Y class_assignment="class 2"
variant_name=L6P class_assignment="class 3"
variant_name=V17C class_assignment="class 1"
variant_name=D8S class_assignment="class 2"
variant_name=I2Q class_assignment="class 3"
variant_name=N1D class_assignment="class 1"
variant_name=V13P class_assignment="class 2"
variant_name=Y5V class_assignment="class 2"
variant_name=V13L class_assignment="class 2"
variant_name=E15I class_assignment="class 3"
variant_name=I14T class_assignment="class 2"
